// reported inhibition per item
assay: blockers of RIG-like receptor reporter activation – cell-based, Sendai virus stimulus, luciferase, 10K MLSCN set, TLR/RLR signaling modifier project, primary screen (AID 602276); settings: HEK293 RL24 IRF3 luciferase reporter, at 10 µM, hits give high values;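 further: firefly luciferase from ISG56 promoter only with Renilla not read in this screen; 0% = Sendai virus plus DMSO and 100% = medium plus DMSO without virus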
Quick note: give the figure in %, leave out the unit.

molecule: Cc1cccc(NC(=O)CN(C)S(=O)(=O)c2ccccc2)n1
inhibition, %: 15
--
molecule: O=C(O)c1ccc(S(=O)(=O)Cc2ccccc2)cc1
inhibition, %: 16.7
--
molecule: Cc1cnc(C(=O)Nc2ccccc2-n2cccc2)cn1
inhibition, %: -12.6
--
molecule: COc1cc(C2C(C#N)=C(C)NC3=C2C(=O)CC(C)(C)C3)ccc1O (configuration not stated)
inhibition, %: 8.2

Exam item: Quick one: inhibition of `COc1ccccc1NC(=O)N(Cc1ccco1)Cc1cc2cccc(C)c2[nH]c1=O` ?
Marked response: 8.12

Exam item: I would be grateful if you could share the reported inhibition for `O=C(Nc1ccc2oc(Cc3ccc(Cl)cc3)nc2c1)c1cccnc1` .
Marked response: 14.7

Exam item: Quick check: inhibition of `Cc1cc(=O)n(CC(C)C)c(O)c1C#N` ?
Marked response: 13
